Quick reference for GI50 among some compounds
tested on: HS 578T breast; test: NCI tumour cell line growth inhibition, 48 h

>>> df
                                   compound  observed_value
0  CC(=O)O[C@H]1C[C@@H]2[C@@]3(C)CC[C@H]4C[C@@]4(C)[C@@H]3CC[C@@]2(C)C2=CCC3=C(COC3=O)[C@]21C         10.2 µM
1    COc1cc(NC(=O)COc2ccccc2)c(C(N)=O)cc1OC        0.771 µM
2  O=C(NO)c1ccc(CNc2cccc3nc(C4CC4)n(-c4ccccc4)c(=O)c23)cc1          2.5 µM
3   O=C1NC(=NCc2cccs2)O/C1=C\c1ccc2ncccc2c1         4.72 µM
4  COc1cc2c(cc1OCCN1CCN(CCN3C(=O)c4cccc5cccc(c45)C3=O)CC1)N=C[C@@H]1CCCN1C2=O         24.9 µM

# next compound below
Check the records and state GI50 for O=C1C[C@@H]2OCC=C3C[N+]4([O-])CC[C@]56c7ccccc7N1[C@H]5[C@H]2[C@H]3C[C@@H]64 (stereo partly specified)
> 100 µM

Sourced from PubChem BioAssay (NCI)
